Just for reference, paper PMC11274883 is where these values come from.

- System: MDA−MB−231 cells
- method-notes: TMRE mitochondrial membrane potential assay
- Assay type: cell-based
- condition-details: MDA−MB−231, 24 h, complexes at IC50, FCCP 20 µM
Could you please report measured MtMp (mitochondrial membrane potential) for the items listed next?
A number alone suffices; assume RFU.

Query N.N.[Cl][Pt][Cl] [Cisplatin, cisplatin] yields MtMp (mitochondrial membrane potential) of 208.24

Quick note, MtMp (mitochondrial membrane potential) for N[C@H]1CCCC[C@@H]1N.O=[N+]([O-])[O-].O=[N+]([O-])[O-].[Pt+2].c1cnc2c(c1)ccc1cccnc12 landed at 258.17

For record Cc1c(C)c2cccnc2c2ncccc12.N[C@H]1CCCC[C@@H]1N.O=[N+]([O-])[O-].O=[N+]([O-])[O-].[OH][Pt+2][OH] the listed MtMp (mitochondrial membrane potential) is 190.39

So for Cc1c(C)c2cccnc2c2ncccc12.N[C@H]1CCCC[C@@H]1N.O=[N+]([O-])[O-].O=[N+]([O-])[O-].[Pt+2] , the logged MtMp (mitochondrial membrane potential) turned out to be 155.45

----------
- Tested on: HT29 cells
- method-notes: Cellular uptake of Pt by ICP-MS
- Format: cell-based
- condition-details: HT29, extracellular 3 µM, 12 h
Classify by measured Intracellular/extracellular ratio: 1 (yes) if it is equal to or exceeds 2000, 0 (no) if it is smaller.

Confirm if Intracellular/extracellular ratio reported for the molecule Cc1cc2cccnc2c2ncccc12.N[C@H]1CCCC[C@@H]1N.O=[N+]([O-])[O-].O=[N+]([O-])[O-].[OH][Pt+2][OH] is 2000 or above.
0 (no)

Threshold query (Intracellular/extracellular ratio >= 2000) on Cc1c(C)c2cccnc2c2ncccc12.N[C@H]1CCCC[C@@H]1N.O=[N+]([O-])[O-].O=[N+]([O-])[O-].[Pt+2]
1 (yes)

Confirm if Intracellular/extracellular ratio reported for the molecule Cc1c(C)c2cccnc2c2ncccc12.N[C@H]1CCCC[C@@H]1N.O=[N+]([O-])[O-].O=[N+]([O-])[O-].[OH][Pt+2][OH] is 2000 or above.
0 (no)

Reported Intracellular/extracellular ratio at or above 2000? N[C@H]1CCCC[C@@H]1N.O=[N+]([O-])[O-].O=[N+]([O-])[O-].[OH-].[OH-].[Pt+4].c1cnc2c(c1)ccc1cccnc12
0 (no)

// inclusive: Intracellular/extracellular ratio at least 2000? input: Cc1cc2cccnc2c2ncccc12.N[C@H]1CCCC[C@@H]1N.O=[N+]([O-])[O-].O=[N+]([O-])[O-].[Pt+2]
1 (yes)

----------
- Test system: HT29 cells
- method-notes: Cellular uptake of Pt by ICP-MS
- Format: cell-based
- condition-details: HT29, extracellular 3 µM, 3 h
Param label: returns true when Intracellular/extracellular ratio < 70, returns false otherwise, including exact equality.

For Cc1cc2cccnc2c2ncccc12.N[C@H]1CCCC[C@@H]1N.O=[N+]([O-])[O-].O=[N+]([O-])[O-].[OH][Pt+2][OH] , is the recorded Intracellular/extracellular ratio below the cut-off of 70?
true

Find out if reported Intracellular/extracellular ratio for Cc1c(C)c2cccnc2c2ncccc12.N[C@H]1CCCC[C@@H]1N.O=[N+]([O-])[O-].O=[N+]([O-])[O-].[OH][Pt+2][OH] is less than 70
true

Please let me know if N[C@H]1CCCC[C@@H]1N.O=[N+]([O-])[O-].O=[N+]([O-])[O-].[OH-].[OH-].[Pt+4].c1cnc2c(c1)ccc1cccnc12 shows Intracellular/extracellular ratio below 70.
true

Field: below-cutoff. Rule: recorded Intracellular/extracellular ratio strictly less than 70. Subject: N[C@H]1CCCC[C@@H]1N.O=[N+]([O-])[O-].O=[N+]([O-])[O-].[Pt+2].c1cnc2c(c1)ccc1cccnc12
false

Hi there! Is Intracellular/extracellular ratio for Cc1c(C)c2cccnc2c2ncccc12.N[C@H]1CCCC[C@@H]1N.O=[N+]([O-])[O-].O=[N+]([O-])[O-].[Pt+2] below 70, do you know?
false

Identify whether the compound Cc1cc2cccnc2c2ncccc12.N[C@H]1CCCC[C@@H]1N.O=[N+]([O-])[O-].O=[N+]([O-])[O-].[Pt+2] records Intracellular/extracellular ratio below 70.
false

----------
- System: MDA−MB−231 cells
- method-notes: Western blot protein expression
- Format: cell-based
- condition-details: MDA−MB−231, IC50, 72 h, representative blot Figure S26A
Give Bax/GAPDH normalized to control (1) for every item shown.
Enter a number only.

compound Cc1cc2cccnc2c2ncccc12.N[C@H]1CCCC[C@@H]1N.O=[N+]([O-])[O-].O=[N+]([O-])[O-].[OH][Pt+2][OH] [Pt^IV5MESS(OH)2] , Bax/GAPDH normalized to control (1) observed: 1.846

Summary for this compound, N.N.[Cl][Pt][Cl] [Cisplatin, cisplatin] : Bax/GAPDH normalized to control (1) is 1.836

Item: Cc1c(C)c2cccnc2c2ncccc12.N[C@H]1CCCC[C@@H]1N.O=[N+]([O-])[O-].O=[N+]([O-])[O-].[OH][Pt+2][OH] [Pt^IV56MESS(OH)2] | Bax/GAPDH normalized to control (1): 2.6

Value of measured Bax/GAPDH normalized to control (1) for the entry N[C@H]1CCCC[C@@H]1N.O=[N+]([O-])[O-].O=[N+]([O-])[O-].[OH-].[OH-].[Pt+4].c1cnc2c(c1)ccc1cccnc12 : 1.398

----------
- Test system: HT29 cells
- method-notes: Cellular uptake of Pt by ICP-MS
- Assay type: cell-based
- condition-details: HT29, extracellular 3 µM, 0 h
endpoint-name: Intracellular/extracellular ratio

response.value for N[C@H]1CCCC[C@@H]1N.O=[N+]([O-])[O-].O=[N+]([O-])[O-].[Pt+2].c1cnc2c(c1)ccc1cccnc12 (field: Intracellular/extracellular ratio) = 95.39

Briefly, Intracellular/extracellular ratio measured for N[C@H]1CCCC[C@@H]1N.O=[N+]([O-])[O-].O=[N+]([O-])[O-].[OH-].[OH-].[Pt+4].c1cnc2c(c1)ccc1cccnc12 : 16.45

Reported Intracellular/extracellular ratio of Cc1cc2cccnc2c2ncccc12.N[C@H]1CCCC[C@@H]1N.O=[N+]([O-])[O-].O=[N+]([O-])[O-].[OH][Pt+2][OH] : 25.03

The recorded Intracellular/extracellular ratio for entry Cc1c(C)c2cccnc2c2ncccc12.N[C@H]1CCCC[C@@H]1N.O=[N+]([O-])[O-].O=[N+]([O-])[O-].[Pt+2] equals 70.93

Per the records, this compound ( Cc1cc2cccnc2c2ncccc12.N[C@H]1CCCC[C@@H]1N.O=[N+]([O-])[O-].O=[N+]([O-])[O-].[Pt+2] ) has Intracellular/extracellular ratio equal to 44.37

The value of Intracellular/extracellular ratio measured for the compound Cc1c(C)c2cccnc2c2ncccc12.N[C@H]1CCCC[C@@H]1N.O=[N+]([O-])[O-].O=[N+]([O-])[O-].[OH][Pt+2][OH] turned out to be 21.81

----------
- System: MDA−MB−231
- method-notes: WST-1 cytotoxicity, 72 h
- Format: cell-based
- condition-details: MDA−MB−231, 72 h
- Experimental: Cells were seeded in 96-well flat-bottom culture plates at a concentration of 1000 cells per well. […] After 72 h, the medium was removed and replaced with new medium. The cell viability reagent WST-1 (10 µL, Roche Diagnostics, Indianapolis, IN, USA) was added to each well. After an hour, the absorbance was measured at 450 nm using a versatile microplate reader (Bio-strategy, Campbellfield, VIC, Australia). Three separate experiments were performed, each with n = 3 replicates. […]
endpoint-name: potency relative to cisplatin (fold)
Return type: number; implicit unit fold.

Just so you know, measured potency relative to cisplatin for Cc1c(C)c2cccnc2c2ncccc12.N[C@H]1CCCC[C@@H]1N.O=[N+]([O-])[O-].O=[N+]([O-])[O-].[OH][Pt+2][OH] came out at 18

compound N[C@H]1CCCC[C@@H]1N.O=[N+]([O-])[O-].O=[N+]([O-])[O-].[Pt+2].c1cnc2c(c1)ccc1cccnc12 , potency relative to cisplatin observed: 13

So, N[C@H]1CCCC[C@@H]1N.O=[N+]([O-])[O-].O=[N+]([O-])[O-].[OH-].[OH-].[Pt+4].c1cnc2c(c1)ccc1cccnc12 ? Its potency relative to cisplatin was 4

----------
- Test system: A2780
- method-notes: WST-1 cytotoxicity, 72 h
- Type: cell-based
- condition-details: IC50 MCF10A/IC50 A2780
Criterion met if Selective cytotoxicity index (SCI) is below 2. Criterion not met if not; exact matches included in Criterion not met.

Field: below-cutoff. Rule: recorded Selective cytotoxicity index (SCI) strictly less than 2. Subject: Cc1cc2cccnc2c2ncccc12.N[C@H]1CCCC[C@@H]1N.O=[N+]([O-])[O-].O=[N+]([O-])[O-].[Pt+2]
Criterion met

Strictly below 2 in Selective cytotoxicity index (SCI)? Cc1cc2cccnc2c2ncccc12.N[C@H]1CCCC[C@@H]1N.O=[N+]([O-])[O-].O=[N+]([O-])[O-].[OH][Pt+2][OH]
Criterion not met

Say whether its Selective cytotoxicity index (SCI) is strictly beneath 2. Entry: N[C@H]1CCCC[C@@H]1N.O=[N+]([O-])[O-].O=[N+]([O-])[O-].[OH-].[OH-].[Pt+4].c1cnc2c(c1)ccc1cccnc12
Criterion not met

Consider the compound Cc1c(C)c2cccnc2c2ncccc12.N[C@H]1CCCC[C@@H]1N.O=[N+]([O-])[O-].O=[N+]([O-])[O-].[OH][Pt+2][OH] . Is its Selective cytotoxicity index (SCI) strictly less than 2?
Criterion not met

Decide: Selective cytotoxicity index (SCI) of Cc1c(C)c2cccnc2c2ncccc12.N[C@H]1CCCC[C@@H]1N.O=[N+]([O-])[O-].O=[N+]([O-])[O-].[Pt+2] strictly below 2?
Criterion not met

Find out if reported Selective cytotoxicity index (SCI) for N[C@H]1CCCC[C@@H]1N.O=[N+]([O-])[O-].O=[N+]([O-])[O-].[Pt+2].c1cnc2c(c1)ccc1cccnc12 is less than 2
Criterion not met
